src = ChEMBL document CHEMBL4385666

tested on: Histone deacetylase 2 (Homo sapiens)
Sequence (Q92769 whole entry): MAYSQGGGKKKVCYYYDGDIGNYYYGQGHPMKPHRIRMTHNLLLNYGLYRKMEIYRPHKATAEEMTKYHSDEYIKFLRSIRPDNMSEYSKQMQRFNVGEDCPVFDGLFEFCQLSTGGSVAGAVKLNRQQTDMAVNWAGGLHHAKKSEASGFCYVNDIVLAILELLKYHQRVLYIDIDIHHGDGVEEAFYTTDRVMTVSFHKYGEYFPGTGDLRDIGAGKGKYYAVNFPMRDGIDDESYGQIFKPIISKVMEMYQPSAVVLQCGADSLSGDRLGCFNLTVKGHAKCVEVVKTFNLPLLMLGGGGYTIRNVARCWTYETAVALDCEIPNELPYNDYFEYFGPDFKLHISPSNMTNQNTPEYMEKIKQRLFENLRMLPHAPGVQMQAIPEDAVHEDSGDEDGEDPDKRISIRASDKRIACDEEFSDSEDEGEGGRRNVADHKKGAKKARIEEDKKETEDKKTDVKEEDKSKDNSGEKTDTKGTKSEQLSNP
assay method text: Inhibition of human recombinant HDAC2 pre-incubated for 30 mins before substrate addition and measured after 30 mins by fluorescence based assay
measured parameter: IC50 (µM)

As a guide, the following entries are already answered.
COc1cccc(CNCc2ccc(/C=C/C(=O)NO)cc2)c1OC; 0.95
COc1ccc(CNCc2ccc(/C=C/C(=O)NO)cc2)c(OC)c1; 0.994
COc1ccc(OC)c(CNCc2ccc(/C=C/C(=O)NO)cc2)c1; 1.75
COc1ccc(CNCc2ccc(/C=C/C(=O)NO)cc2)cc1; 0.926
COc1cccc(OC)c1CNCc1ccc(/C=C/C(=O)NO)cc1; 1.08
COc1ccccc1CNCc1ccc(/C=C/C(=O)NO)cc1; 1.49

(P) COc1cc(CNCc2ccc(/C=C/C(=O)NO)cc2)cc(OC)c1
(Q) COc1ccc(CNCc2ccc(/C=C/C(=O)NO)cc2)cc1OC
(R) COc1cccc(CNCc2ccc(/C=C/C(=O)NO)cc2)c1
Please put the entries in order of rising IC50. Output spec: labels arranged per the requested ranking.
R, P, Q
(R: 0.819 µM, P: 1.27 µM, Q: 1.89 µM)

====

tested on: Histone deacetylase 1 (Homo sapiens, UniProt Q13547)
Sequence (Q13547 whole entry): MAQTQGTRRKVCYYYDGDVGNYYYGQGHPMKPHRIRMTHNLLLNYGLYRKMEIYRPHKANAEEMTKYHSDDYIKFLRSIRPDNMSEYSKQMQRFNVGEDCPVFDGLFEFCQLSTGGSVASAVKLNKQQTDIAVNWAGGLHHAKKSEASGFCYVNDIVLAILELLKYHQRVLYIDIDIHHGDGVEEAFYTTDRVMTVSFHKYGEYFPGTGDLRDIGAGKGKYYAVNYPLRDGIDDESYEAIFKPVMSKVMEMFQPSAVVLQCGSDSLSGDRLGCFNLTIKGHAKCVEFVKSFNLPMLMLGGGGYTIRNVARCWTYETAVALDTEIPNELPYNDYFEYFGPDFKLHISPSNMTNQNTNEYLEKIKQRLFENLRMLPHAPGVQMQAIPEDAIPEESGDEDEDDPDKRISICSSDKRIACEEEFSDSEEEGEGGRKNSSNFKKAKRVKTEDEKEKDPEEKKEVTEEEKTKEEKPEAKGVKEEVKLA
assay method text: Inhibition of human recombinant HDAC1 pre-incubated for 30 mins before substrate addition and measured after 30 mins by fluorescence based assay
measured parameter: IC50 (nM)

Some solved cases for reference:
COc1cccc(CNCc2ccc(/C=C/C(=O)NO)cc2)c1OC; 602
COc1ccc(OC)c(CNCc2ccc(/C=C/C(=O)NO)cc2)c1; 620
COc1ccccc1CNCc1ccc(/C=C/C(=O)NO)cc1; 610
COc1ccc(CNCc2ccc(/C=C/C(=O)NO)cc2)cc1; 381
COc1ccc(CNCc2ccc(/C=C/C(=O)NO)cc2)c(OC)c1; 449
COc1cc(CNCc2ccc(/C=C/C(=O)NO)cc2)cc(OC)c1; 837
COc1cccc(CNCc2ccc(/C=C/C(=O)NO)cc2)c1; 463

(1) COc1cccc(OC)c1CNCc1ccc(/C=C/C(=O)NO)cc1
(2) COc1ccc(CNCc2ccc(/C=C/C(=O)NO)cc2)cc1OC
For the pair 1 and 2 , which entry has the numerically smaller recorded IC50? // respond with label for picked entry
1
(1: 636 nM, 2: 1260 nM)

====

tested on: Class 1 histone deacetylase (Homo sapiens, UniProt Q13547+O15379+Q92769+Q9BY41)
assay method text: Inhibition Class 1 histone deacetylase in human HeLa nuclear extracts using Fluor-de- Lys-green substrate by fluorescence assay
Type: cell-free
measured parameter: IC50 (µM)

COc1ccc(CNCc2ccc(/C=C/C(=O)NO)cc2)c(OC)c1; 0.258
O=C(/C=C/c1ccc(CNCc2ccccc2)cc1)NO; 0.37
COc1cccc(CNCc2ccc(/C=C/C(=O)NO)cc2)c1OC; 0.296
